# Study target: T1, CD134 expressed on the cell surface of HT1080_OX40 cells (human, UniProt P43489 29-277)
# T1 construct: whole, on cells; species not restated for the HT1080 transfectant
# T1 sequence (looked up): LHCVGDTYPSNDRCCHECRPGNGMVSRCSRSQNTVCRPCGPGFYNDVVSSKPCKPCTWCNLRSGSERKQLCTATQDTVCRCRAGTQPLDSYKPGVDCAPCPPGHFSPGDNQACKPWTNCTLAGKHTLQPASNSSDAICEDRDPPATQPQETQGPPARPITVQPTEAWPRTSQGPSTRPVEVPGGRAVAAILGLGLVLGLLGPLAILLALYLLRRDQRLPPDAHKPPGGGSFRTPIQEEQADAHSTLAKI
# Protocol text: HT1080_OX40 cells, imaging; note: test concentration or dose not given here

| Binder | Cellular binding assay [RFU], RFU |
| --- | --- |
| P018.S.08.A.B03 (antibody, V domains shown, V regions on human Ig constant parts; also called AB134_19) VH: QSVEESGGRLVTPGTPLTLTCTVSGFSLSRYAITWVRQAPGKGLEWIGIISSSGTTYYASWAKGRFTISKTSTTVDLKITSPTTEDTAIYFCARAIAGDAGYVYAIDWLDLWGQGTLVTVSS VL: DPVLTQTPSSASEPVGGTVTIKCQASEYISNYLSWYQQKPGQPPKLLIFGASTLESGVPSRFSGSGSGTEFTLTISGVQSADAATYYCQGGYFSSSTTYVAFGGGTEVVVR | 477 |
